Taken from PubChem BioAssay (NCI).

System: SW-620 colon
test-name: NCI-60 one-dose screen, 48 h (100 = growth as untreated, 0 = no growth, -100 = all killed)
experimental-parameters: 10 µM unless noted
Compounds without any hit were thinned out: in the full panel of roughly 83,000, 20% have a hit.
Catalogue of growth values

>  <molecule>
COc1cc([C@@H]2c3cc4c(cc3[C@H](OC3OC5COC(c6ccccc6)OC5C(O)C3O)[C@H]3COC(=O)[C@H]23)OCO4)cc(OC)c1OC (stereo not given in full)

>  <test-system>
SW-620 colon

>  <growth / %>
43.9

$$$$
>  <molecule>
OC(c1cc(-c2ccc(Cl)cc2)nc2c(Cl)cccc12)C1CCCCN1 (stereo not given)

>  <test-system>
SW-620 colon

>  <growth / %>
-86.2

$$$$
>  <molecule>
CC(C)=C1C=C2CC[C@@H]3[C@](C)(CCC[C@@]3(C)C(=O)O)[C@H]2CC1

>  <test-system>
SW-620 colon

>  <growth / %>
102

$$$$
>  <molecule>
CCCCCCN(CCCCCC)CCCNc1nccc2ccccc12

>  <test-system>
SW-620 colon

>  <growth / %>
6.78

$$$$
>  <molecule>
O=C(O)c1cccc2cccc(-c3c4ccc(=O)c(O)c-4oc4c(O)c(O)ccc34)c12

>  <test-system>
SW-620 colon

>  <growth / %>
97.3

$$$$
